Assay: NCI Yeast Anticancer Drug Screen. Data for the mec2-1 strain (AID 157)
Details: S. cerevisiae mec2-1 strain, at 50.0 µM, hits give high values
This is part of a sample that, as a whole, favours compounds with a hit. Of some 79,000 tested, about 15% had one in any assay.

| molecule | growth inhibition / % |
| --- | --- |
| COc1cccc(C2SCC(=O)N2c2nncs2)c1OC (configuration not stated) | 6 |
| O=C(/C=C(/CC(=O)c1ccccc1)C(=O)c1ccccc1)c1ccccc1 | -22.9 |
| O=c1[nH]c(-c2cccnc2)nnc1-c1ccc(Cl)cc1 | 2.4 |
| CCCC(=O)Oc1ccc(C(C)(C)C)cc1C | -19.1 |
| COc1ccc(/C(C)=N/N=C(\C)c2ccc(OC)cc2)cc1 | -28.1 |
| N=C1C=Cc2ccccc2/C1=N/N=c1/ccccn1O | 91.6 |
| CCC(C)CNCCO (configuration not stated) | -7.1 |

====

Assay: NCI Yeast Anticancer Drug Screen. Data for the sgs1 mgt1 strain (AID 161);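 note: 0% = growth of cultures given vehicle only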
Settings: S. cerevisiae sgs1 mgt1 strain, at 50.0 µM
About 79,000 compounds went through this panel and 15% of them were active in at least one assay; those are over-represented in the sample as a whole. Calls of active or inactive are those of the source. No stated cut-off is given here; in the data, active means growth inhibition above about 70%; inactive means the rest.
Classes used: 1 (yes) for active, 0 (no) for inactive

| compound | label |
| --- | --- |
| CCCCCCCCCC1OCCCO1 | 0 (no) |
| CCCN(CCC)C(=O)c1c(Cl)c2cccnc2n2c(C)cnc12 | 0 (no) |
| CCCCCCCCCCCCCCCC(=O)NCC(=O)NC1C(CO)OC(Nc2ncnc3nc[nH]c23)C(O)C1O (configuration not stated) | 1 (yes) |
| O=C(c1ccccc1)C1Nc2ccc(Cl)cc2C2C=CCC12 (configuration not stated) | 0 (no) |
| O=C(CC(=O)N(C(=O)/C=C\c1ccccc1)c1ccc(Cl)cc1)N1N=C(c2ccccc2)C(N=Nc2cccc([N+](=O)[O-])c2)C1=O (configuration not stated) | 0 (no) |
| COC1(OC)N=C(N)C2(C#N)C(C)CC(=O)N(N(C)C)C12C#N (configuration not stated) | 0 (no) |
| Cc1ccc(OC/C=C/CS(=O)(=O)c2ccc(C)cc2)cc1 | 0 (no) |
| O=C(Nc1ccccc1)OCc1cnc2ccccc2c1 | 0 (no) |
| CC(C)NC(=O)N(C(=O)C(F)(F)F)C(C)C | 0 (no) |
| CCOC(=O)c1ccc(-c2ccccc2)cc1 | 0 (no) |
| CC[n+]1ccccc1Br | 0 (no) |
| CC(=O)CC(=O)NCc1cccc(C)n1 | 0 (no) |
| Cc1ccc(-c2nn[nH]n2)cc1[N+](=O)[O-] | 0 (no) |
| OC1CN(c2ccccc2)CC(O)CN(c2ccccc2)C1 (configuration not stated) | 0 (no) |
| CCn1c(=O)c2[nH]c(-n3c(Cl)nc4c3c(=O)n(CC)c(=O)n4CC)nc2n(CC)c1=O | 0 (no) |
| CCC(CC)=NNc1ccc([N+](=O)[O-])cc1[N+](=O)[O-] | 0 (no) |
| CC1(C)C2CC[C@]3(C)C(C(=O)C=C4[C@@H]5C[C@@](C)(C(=O)O)CC[C@]5(C)CCC43C)[C@@]2(C)CC[C@@H]1OC1OC(C(=O)O)C(O)C(O)C1OC1OC(C(=O)O)C(O)C(O)C1O (some centres not stated) (tested in a mixture with another compound) | 0 (no) |
| CCCCCCCCC/C=C\C(=O)O | 0 (no) |
| CCOC(=O)CCC1(C(=O)OC)C(=O)CCCCCCCC1C(=O)OC (configuration not stated) | 0 (no) |
| CC(=O)OCC1OC(n2c(Br)nc3c(N)ncnc32)C2OC(C)(C)OC12 (configuration not stated) | 0 (no) |
| CN(C)c1noc2c1c(=O)n(C)c(=O)n2C | 0 (no) |
| CCC(=O)C12OC3OC(C)(C)OC3C1OC(C)(C)O2 (configuration not stated) | 0 (no) |

====

Experiment: NCI Yeast Anticancer Drug Screen. Data for the bub3 strain (AID 167)
Conditions: S. cerevisiae bub3 mutant strain, at 50.0 µM, hits give high values
The panel holds about 79,000 compounds, 15% with a hit somewhere; the sample as a whole holds those more often.
Attribute: growth inhibition

| molecule | growth inhibition (%) |
| --- | --- |
| O=[N+]([O-])c1ccc(-c2nc3ccncc3[nH]2)cc1 | -6.85 |
| Cc1ccc(-c2c(C#N)c(S)n(NS(=O)(=O)c3ccc(C)cc3)c(=O)c2C#N)cc1 | 39.6 |
| N#CCCc1ccnc2ccccc12 | -3.8 |
| C=C(c1ccccc1)c1cccc2ccccc12 | -11.7 |
| CCCCCCCCCCCCCCCCCCOCCOCCOCCOCCO | -3.25 |
| COc1cccc(C2c3cc4c(cc3OC(Nc3ccccc3)C2C)OCO4)c1OC (stereo unspecified) | -36.9 |

====

Experiment: NCI Yeast Anticancer Drug Screen. Data for the rad50 strain (AID 155);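 note: 0% = growth of vehicle-only cultures of the same strain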
Conditions: S. cerevisiae rad50 strain growth inhibition; at 50.0 µM
The panel holds about 79,000 compounds, 15% with a hit somewhere; the sample as a whole holds those more often. Active and inactive are the calls of the source. Rule as the data show it: active = growth inhibition above about 70%; inactive = the rest. Where a SMILES comes first, the peptide text is derived from it. The star is where a group is joined. Boc = CC(C)(C)OC(=O)*; Bn = c1ccc(C*)cc1
Classes used: active, inactive

| compound | label |
| --- | --- |
| CCc1c(O)c2c(c(O)c1C(C)=O)C(=O)c1c(cc(O)c(C(=O)O)c1C(=O)O)C2=O | inactive |
| CN1CCCC2[C@@H]3CCC4=C(O)C(=O)CC[C@]4(C)C3CC[C@@]21C (stereo partly drawn) | inactive |
| COC(=O)C(CC(C)C)NC(=O)CNC(=O)C(Cc1ccc(OCc2ccccc2)cc1)NC(=O)C(COCc1ccccc1)NC(=O)OC(C)(C)C (stereo not drawn) (Boc-S(Bn)Y(Bn)GL-OMe; configuration not given here) | inactive |
| CSCSCC(CO)NC(=O)/C=C\c1ccccc1 (stereo not drawn) | inactive |
| CC(=O)Oc1ccc(-c2ccccc2)cc1 | inactive |
| COc1ccccc1-c1ccc([N+](=O)[O-])cc1[N+](=O)[O-] | inactive |
| CN(C)CCOC(=S)S | inactive |
| O=C1Cn2c(cc(=O)c3ccccc32)O1 | inactive |
| CC(=O)N(C)C | inactive |
| CCN(CC)CC1CO1 (stereo not drawn) | inactive |
| CC(C)OC(=O)Oc1ccccc1Cl | inactive |
| CC(=O)C1(C)CCC2C3CCC4=CC(=O)CCC4=C3CCC21C (stereo not drawn) | inactive |
| CCOC(=O)CN | inactive |
| O=Cc1ccccc1Cl | inactive |
| CCC[CH2][Sn]([C]#[C][Sn]([CH2]CCC)([CH2]CCC)[CH2]CCC)([CH2]CCC)[CH2]CCC | active |
| CC(=O)c1c(-c2ccc(Cl)cc2)c(-c2ccc(Cl)cc2)nn(CCNC(C)C)c1=O | active |
| Nc1ccc2ccccc2c1N=Nc1ccc(/C=C/c2ccc(N=Nc3c(N)ccc4ccccc34)cc2S(=O)(=O)O)c(S(=O)(=O)O)c1 | inactive |
| C=CCc1ccc(OC(=O)CC)c(OC)c1 | inactive |
| O=[N+]([O-])c1ccc2[nH]c(=S)n(/C=C(/c3ccccc3)S(=O)Cc3ccccc3)c2c1 (stereo not drawn) | inactive |
| O=C(NNC(=O)c1ccc2ccccc2n1)c1ccc2ccccc2n1 | inactive |
| COc1ccc(/C=C/C(=O)c2ccccc2)cc1 | inactive |
| COc1ccc(S(=O)(=O)N/N=C/C(=O)OCOC(=O)C(C)(C)C)cc1 | inactive |
| CC(C)N(CCC#N)C(=S)Nc1cccc(C(F)(F)F)c1 | inactive |
| COC(=O)CCCc1ccc2c(c1)CC1(C2)Cc2cc3c(cc2C1)CCCC3 | inactive |
| Cc1ccc(S(=O)(=O)ON2C(=O)c3cccc4cc([N+](=O)[O-])cc(c34)C2=O)cc1 | inactive |
| Nc1ccccc1SC1CCCCC1O (stereo not drawn) | inactive |
| COc1ccc(N2C(=O)C3c4[nH]c5ccc(F)cc5c4C4CCC(C(C)(C)C)CC4C3C2=O)cc1 (stereo not drawn) | inactive |
| CCCNC(=O)N1C(=O)c2ccccc2S1(=O)=O | inactive |
| CCCCOC1CCC(O)C2CCCCC12 (stereo not drawn) | inactive |
| O=C(O)CCc1ccccc1-c1ccccc1C(=O)O | inactive |
| COC(=O)c1cc(C)ncc1C#N | inactive |
| CC(=O)Oc1cccn2c(C(=O)C(=O)c3ccc4c(OC(C)=O)cccn34)ccc12 | inactive |
| C[C@@H]1O[C@]2(O)[C@@H]3CCCN3S(=O)(=O)CCN2C1=O | inactive |
| CCN(CC)CCC1CC/C(=C\c2ccc(OC)cc2)C1=O (stereo not drawn) | inactive |
| O=c1oc(-c2ccc(Cl)cc2Cl)nc2cc(Cl)ccc12 | inactive |
| CCCCCCCCCCCCCCCCCCCCCCCCCCCC | inactive |
| Cc1ccc(C(=O)N/N=C/c2c(O)ccc3ccccc23)cc1 | inactive |
| O=Nc1ccc(O)cc1O | inactive |
| CCC1CN2CCc3cc(OC)c(OC)cc3C2CC1C#N (stereo not drawn) | inactive |
| Cc1ccc(S(=O)(=O)c2cc3ccccc3oc2=O)cc1 | inactive |
| CSC(C(=O)O)c1cc(-c2c(Cl)cccc2Cl)no1 (stereo not drawn) | inactive |
| N#C/C=C/c1ccc(Cl)cc1 | inactive |
| O=C1c2ccccc2C(=CC=C2c3ccccc3Sc3ccccc32)c2ccccc21 | inactive |
| c1ccc2c3c(ccc2c1)CCC3 | inactive |
| COc1ccc(S(=O)(=O)N/N=C\c2cc(I)cc(I)c2O)cc1 | inactive |
| O=c1[nH]cc(C(F)(C(F)(F)F)C(F)(F)F)c(=O)[nH]1 | inactive |
| Ic1ccc([I+]c2ccc(I)cc2)cc1 | active |
| COC(=O)C(C)=C1CCCCC1 | inactive |
